Cited source: patent US20260193315A1

SYSTEM: 4-1BB on transfected NF-κB Jurkat cells (UniProt Q07011 24-255, limits assumed)
Sequence (Q07011 24-255 limits assumed): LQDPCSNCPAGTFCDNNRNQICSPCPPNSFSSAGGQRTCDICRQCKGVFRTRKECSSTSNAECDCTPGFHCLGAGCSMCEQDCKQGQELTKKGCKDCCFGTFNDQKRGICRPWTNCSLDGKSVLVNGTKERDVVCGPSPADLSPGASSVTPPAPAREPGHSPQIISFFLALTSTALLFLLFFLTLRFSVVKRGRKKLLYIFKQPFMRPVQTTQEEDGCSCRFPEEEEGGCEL
PROTOCOL_DESCRIPTION: cell-based or functional assay
PROPERTY_NAME: Reporter (vs wt)
Numbers only.

Some entries whose results are on file:
{"BINDER": "1D2 (ligand, also called 4-1BBL variant 1D2 (phagemid clone, bacterial supernatant)) 4-1BBL variant: ACPWAVSGARASPGSAASPRLREGPELSPDDPAGLLDLRQGMFAQLVAQNVLLIDGPLSWYEDPGLAGVSLTGGLSYKEDTKELVVAKAGVYYVFFQLELRRVVAGTGSGSVSLALHLQPLRSAAGAAALALTVDLPPASSEARNSAFGFQGRLLHLSAGQRLGVHLHTEARARHALQLTQGATVLGLFRVTPEIPAGLPSPRSE", "Reporter (vs wt)": 0.75}
{"BINDER": "8E2 (ligand, also called 4-1BBL variant 8E2 (phagemid clone, bacterial supernatant)) 4-1BBL variant: ACPWAVSGARASPGSAASPRLREGPELSPDDPAGLLDLRQGMFAQLVAQNVLLIDGPLSWYPDPGLAGVSLTGGLSYKEDTKELVVAKAGVYYVFFQLELRRVVAFEGSGSVSLALHLQPLRSAAGAAALALTVDLPPASSEARNSAFGFQGRLLHLSAGQRLGVHLHTEARARHSWQLTQGATVLGLFRVTPEIPAGLPSPRSE", "Reporter (vs wt)": 0.9}

Shifting focus to the binder that follows.
Incoming: Suppose we examine the binder 8B10 (ligand, also called 4-1BBL variant 8B10 (phagemid clone, bacterial supernatant)) 4-1BBL variant: ACPWAVSGARASPGSAASPRLREGPELSPDDPAGLLDLRQGMFAQLVAQNVLLIDGPLSWYTDPGLAGVSLTGGLSYKEDTKELVVAKAGVYYVFFQLELRRVVAGMGSGSVSLALHLQPLRSAAGAAALALTVDLPPASSEARNSAFGFQGRLLHLSAGQRLGVHLHTEARARHSWQLTQGATVLGLFRVTPEIPAGLPSPRSE ; what Reporter (vs wt) value has been reported?
Outgoing: 4.66
